Taken from ChEMBL document CHEMBL1782017.

Provide the reported Activity of each item.
Tested on: 3T3-L1
Experiment: Glucose consumption in differentiated mouse 3T3L1 cells in high-glucose medium at 50 ug/ml after 24 hrs by glucose-oxidase method (Rvb =3.06 +/- 0.29 mmol/L)
Assay type: functional
Answers are plain numbers, in mmol/L.

# example entries with known answers
* C=CCCCCCCCCC(=O)Oc1ccc2c(c1)C(=O)/C(=C/c1cccc(Cl)c1)O2 | 3.86
* CCc1ccc(CCOc2ccc(CC3SC(=O)NC3=O)cc2)nc1 (stereo not drawn) | 7.36

The record that follows has no Activity shown yet.
Q. Provide only the value of recorded Activity for C=CCCCCCCCCC(=O)Oc1ccc2c(c1)C(=O)/C(=C/c1ccc(F)cc1)O2
A. 5.16

----------
For each entry below, report its Activity value.
System: 3T3-L1
Test: Antiproliferative activity against mouse 3T3L1 cells after 48 hrs by MTT assay
Type: functional
Design: concentration or dose not given beside the values
One number for each entry, in %.

Reference set (5 entries):
* C=CCCCCCCCCC(=O)Oc1ccc2c(c1)C(=O)/C(=C/c1cccc(OC)c1)O2 | 0.21
* CCCCC/C=C\C=C\CCCCCCCCC(=O)Oc1ccc2c(c1)C(=O)/C(=C/c1ccc(F)cc1)O2 | 14.2
* CCCCC/C=C\C=C\CCCCCCCCC(=O)Oc1ccc2c(c1)C(=O)/C(=C/c1cccc(Cl)c1)O2 | -11.46
* C=CCCCCCCCCC(=O)Oc1ccc2c(c1)C(=O)/C(=C/c1cccc([N+](=O)[O-])c1)O2 | -8.37
* C=CCCCCCCCCC(=O)Oc1ccc2c(=O)c(Cc3ccc(OC)cc3)coc2c1 | -17.45

Consider the following items and state reported Activity for each.
1. CCCCCCCCCCCCCCCCCC(=O)Oc1ccc2c(c1)O/C(=C\c1ccc(OC)cc1)C2=O
2. CCCCC/C=C\C=C\CCCCCCCCC(=O)Oc1ccc2c(=O)c(Cc3ccc(OC)cc3)coc2c1
3. CCCCCCCC/C=C\CCCCCCCC(=O)Oc1ccc2c(c1)C(=O)/C(=C/c1cccc(OC)c1)O2

A.
1. 11.43
2. -4.37
3. -5.41
